assayExplanation: Pharmacokinetic evaluation: plasma concentration in dogs
Type: in vivo, Male beagle dogs
assaySetup: dog, po 10 mg/kg, 1/4 h
resultType: concentration at 0.25 h (ng/mL)
Report the figure in ng/mL without appending any unit label.

IN: Indicate its recorded concentration at 0.25 h; the compound in question is CC(C)CP(=O)(O)C/C(=C\C1CCCCC1)C(=O)O [Compound No. 2]
OUT: 3000

* * *

assayExplanation: Pharmacokinetic evaluation: plasma concentration in rats
Type: in vivo, Male SD rats
assaySetup: rat, plasma; ester po, 10 mg/kg equivalent to compound No. 2, calculated as free acid (No. 2), 6 h
Description: (4) Pharmacokinetic evaluations Male SD rats ([…]) were divided into groups each consisting of three animals. […] Furthermore, cilastatin was intravenously administered to a 14th group as a control group. Plasma samples were taken periodically from the carotid artery through a cannula inserted into it at the points of 1/12, 1/4, 1/2, 1, 2, 4, 6, 8 and 24 hours after the administration. The area under the curve (AUC) of the plasma concentration was determined according to the trapezoidal rule.
resultType: concentration at 6 h (ng/mL)
Report the figure in ng/mL without appending any unit label.

IN: Indicate its recorded concentration at 6 h; the compound in question is Cc1oc(=O)oc1COC(=O)/C(=C/C1CCCCC1)CP(=O)(O)CC(C)C
OUT: 2600

* * *

assayExplanation: Pharmacokinetic evaluation: plasma concentration in dogs
Type: in vivo, Male beagle dogs
assaySetup: dog, po 10 mg/kg, 1/2 h
resultType: concentration at 0.5 h

IN: Indicate its recorded concentration at 0.5 h; the compound in question is CC(C)CP(=O)(O)C/C(=C\C1CCCCC1)C(=O)O
OUT: 5800 ng/mL

* * *

assayExplanation: Pharmacokinetic evaluation: plasma concentration in dogs
Assay type: in vivo, Male beagle dogs
assaySetup: dog, po 10 mg/kg, trapezoidal rule
resultType: AUC (ng·h/mL)
Report the figure in ng·h/mL without appending any unit label.

IN: Indicate its recorded AUC; the compound in question is CC(C)CP(=O)(O)C/C(=C\C1CCCCC1)C(=O)O
OUT: 51500

* * *

Parameter IC50: see the listing below.
assayedSystem: porcine kidney dehydropeptidase I (Sus scrofa, UniProt P22412)
Construct: Frozen porcine kidney cortex was homogenized; from tissue; host or cells: porcine kidney cortex
Sequence (P22412 17-409): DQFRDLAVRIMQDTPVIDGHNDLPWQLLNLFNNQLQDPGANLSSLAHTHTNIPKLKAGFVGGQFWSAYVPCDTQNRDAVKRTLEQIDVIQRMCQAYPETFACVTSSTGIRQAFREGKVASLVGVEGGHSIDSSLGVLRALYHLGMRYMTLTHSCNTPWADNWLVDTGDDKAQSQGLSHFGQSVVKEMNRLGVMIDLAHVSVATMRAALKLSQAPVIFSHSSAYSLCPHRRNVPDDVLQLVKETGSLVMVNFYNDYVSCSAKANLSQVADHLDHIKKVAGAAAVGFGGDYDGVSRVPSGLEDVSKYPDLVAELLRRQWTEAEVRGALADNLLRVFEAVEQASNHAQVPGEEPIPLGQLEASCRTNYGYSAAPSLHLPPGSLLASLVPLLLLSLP
assayExplanation: Inhibitory activity on porcine kidney dehydropeptidase I (DHP-I)
Assay type: biochemical
assaySetup: substrate glycyldehydrophenylalanine, pH 7.4, 37° C., 3 h pre-incubation; read-out: Concentration producing 50% inhibition (IC50)
Put down the number, then write its unit next to it.

IN: Indicate its recorded IC50; the compound in question is CC(C)CP(=O)(O)C/C(=C\c1ccccc1)C(=O)O
OUT: 60 nM

* * *

assayExplanation: Pharmacokinetic evaluation: plasma concentration in dogs
Type: in vivo, Male beagle dogs
assaySetup: dog, po 10 mg/kg, 2 h
resultType: concentration at 2 h (ng/mL)
Report the figure in ng/mL without appending any unit label.

IN: Indicate its recorded concentration at 2 h; the compound in question is CC(C)CP(=O)(O)C/C(=C\C1CCCCC1)C(=O)O [Compound No. 2]
OUT: 7800

* * *

assayExplanation: Pharmacokinetic evaluation: plasma concentration in rats
Type: in vivo, Male SD rats
assaySetup: rat, plasma; iv 10 mg/kg, 24 h; N.D.: below the detection limit
Parameter concentration at 24 h: see the listing below.
Report the figure in ng/mL without appending any unit label.

Solved entries (count: 2):
CC1(C)CC1P(=O)(O)C/C(=C\C1CCCCC1)C(=O)O (stereo not drawn) [Compound No. 5] : 100
O=C(O)/C(=C/C1CCCCC1)CP(=O)(O)CC1CCCCC1 [Compound No. 28] : 100

IN: Indicate its recorded concentration at 24 h; the molecule in question is O=C(O)/C(=C/C1CCCCC1)CP(=O)(O)CC1CCCC1 [Compound No. 17]
OUT: 500

* * *

assayExplanation: Pharmacokinetic evaluation: plasma concentration in rats
Type: in vivo, Male SD rats
assaySetup: rat, plasma; iv 10 mg/kg, 6 h; N.D.: below the detection limit
resultType: log10(concentration at 6 h) (log10 of the value in ng/mL)
// stored as log10 of concentration at 6 h expressed in ng/mL

O=C(O)/C(=C/C1CCCCC1)CP(=O)(O)CC1CCCC1 [Compound No. 17] : 4.03
O=C(O)/C(=C/C1CCCCC1)CP(=O)(O)CC1CCCCC1 [Compound No. 28] : 3.36
CC(C)CP(=O)(O)C/C(=C\C1CC1)C(=O)O [Compound No. 10] : 2.30

IN: Indicate its recorded log10(concentration at 6 h); the molecule in question is CC1(C)CC1P(=O)(O)C/C(=C\C1CCCCC1)C(=O)O (centres unmarked) [Compound No. 5]
OUT: 3.23

IN: Indicate its recorded log10(concentration at 6 h); the molecule in question is CC(C)CP(=O)(O)C/C(=C\C1CCCCC1)C(=O)O [Compound No. 2]
OUT: 3.73

* * *

assayExplanation: Pharmacokinetic evaluation: plasma concentration in rats
Assay type: in vivo, Male SD rats
assaySetup: rat, plasma; po 10 mg/kg, 1/4 h
Parameter concentration at 0.25 h: see the listing below.
Report the figure in ng/mL without appending any unit label.

CC(C)CP(=O)(O)C/C(=C\C1CCCCC1)C(=O)O : 6600
O=C(O)/C(=C/C1CCCCC1)CP(=O)(O)CC1CCCCC1 : 3100

# context switch: different compound, same concentration at 0.25 h
IN: Indicate its recorded concentration at 0.25 h; the compound in question is CC(C)CP(=O)(O)C/C(=C\C1CC1)C(=O)O
OUT: 1100

* * *

Parameter IC50: see the listing below.
assayedSystem: porcine kidney dehydropeptidase I (Sus scrofa, UniProt P22412)
Construct: Frozen porcine kidney cortex was homogenized; from tissue; host or cells: porcine kidney cortex
assayExplanation: Inhibitory activity on porcine kidney dehydropeptidase I (DHP-I)
Format: biochemical
assaySetup: substrate glycyldehydrophenylalanine, pH 7.4, 37° C., 3 h pre-incubation; read-out: Concentration producing 50% inhibition (IC50)
Report the figure in nM without appending any unit label.

Solved entries (count: 6):
CCCCP(=O)(O)CC(CC1CCCCC1)C(=O)O (centres unmarked) : 28
CC(C)CP(=O)(O)C/C(=C\CCCCCCl)C(=O)O : 44
CCCCP(=O)(O)C/C(=C\C1CCCCC1)C(=O)O : 38
CC(C)CP(=O)(O)C/C(=C\CCCSC[C@H](N)C(=O)O)C(=O)O : 48
CC(C)C/C=C(\CP(=O)(O)CC(C)C)C(=O)O : 15
CC(C)CP(=O)(O)C/C(=C\CCCSCCO)C(=O)O : 64

IN: Indicate its recorded IC50; the molecule in question is O=C(O)/C(=C/C1CCCCC1)CP(=O)(O)CC1CCCCC1
OUT: 50

IN: Indicate its recorded IC50; the molecule in question is CC(C)CP(=O)(O)C/C(=C\CCCSc1nccn1C)C(=O)O
OUT: 48

* * *

assayedSystem: porcine kidney dehydropeptidase I (Sus scrofa)
Construct: Frozen porcine kidney cortex was homogenized; from tissue; host or cells: porcine kidney cortex
assayExplanation: Inhibitory activity on porcine kidney dehydropeptidase I (DHP-I)
Format: biochemical
assaySetup: substrate glycyldehydrophenylalanine, pH 7.4, 37° C., 3 h pre-incubation; read-out: Concentration producing 50% inhibition (IC50)
Classify by IC50. Ranges: L = under 20 nM, M = from 20 nM up to 40 nM, H = 40 nM and over

Reference set (8 entries):
CC(C)CP(=O)(O)C/C(=C\CCCSc1ccccc1)C(=O)O : M
CC(C)P(=O)(O)C/C(=C\C1CCCCC1)C(=O)O : H
CC(C)CP(=O)(O)C/C(=C\CCCCl)C(=O)O : H
CC(C)CP(=O)(O)C/C(=C\CCCC(=O)O)C(=O)O : L
CC(C)CP(=O)(O)C/C(=C\C1CC1)C(=O)O : L
CC(C)CP(=O)(O)C/C(=C\CCCSc1ncccc1O)C(=O)O : M
CC(C)CP(=O)(O)C/C(=C\CCCCCSCC(=O)O)C(=O)O : M
Cc1oc(=O)oc1COC(=O)/C(=C/C1CCCCC1)CP(=O)(O)CC(C)C : H

IN: Hi, small favor: classify CCCCC/C=C(\CP(=O)(O)CC(C)C)C(=O)O by its IC50 when you get a moment.
OUT: H

IN: Hi, small favor: classify CC(C)/C=C(\CP(=O)(O)CC(C)C)C(=O)O by its IC50 when you get a moment.
OUT: L

IN: Hi, small favor: classify CC(C)CP(=O)(O)C/C(=C\CCCCCSc1ncccc1O)C(=O)O by its IC50 when you get a moment.
OUT: L

* * *

assayedSystem: porcine kidney dehydropeptidase I (Sus scrofa, UniProt P22412)
Construct: Frozen porcine kidney cortex was homogenized; from tissue; host or cells: porcine kidney cortex
assayExplanation: Inhibitory activity on porcine kidney dehydropeptidase I (DHP-I)
Type: biochemical
assaySetup: substrate glycyldehydrophenylalanine, pH 7.4, 37° C., 3 h pre-incubation; read-out: Concentration producing 50% inhibition (IC50)
Procedure: (1) Inhibitory activity on porcine kidney dehydropeptidase I (i) Purification of porcine dehydropeptidase I Frozen porcine kidney cortex was homogenized. […] The resulting enzyme preparation (3 mU) and an inhibitor were pre-incubatedat 37° C. for 3 hours in 2.7 ml of a 50 mM MOPS buffer (pH 7.4), and then 2.475 ml of the mixture was transferred into a cuvette. […] An IC50 value was calculated from the percent inhibition data. […]
resultType: pIC50
Scale explanation: pIC50 corresponds to minus log10 of a concentration expressed in moles per litre.

Solved entries (count: 3):
CC(C)CP(=O)(O)C/C(=C\CCc1ccccc1)C(=O)O [compound 11] : 7.24
CCCCCCCCCCP(=O)(O)C/C(=C\C1CCCCC1)C(=O)O [compound 4] : 7.17
CC(C)CP(=O)(O)C/C(=C\C1CCCCC1)C(=O)O [Compound No. 2] : 7.89

IN: Indicate its recorded pIC50; the compound in question is COC(=O)CSCCCCC/C=C(\CP(=O)(O)CC(C)C)C(=O)O [compound 21]
OUT: 7.51

IN: Indicate its recorded pIC50; the compound in question is CCCCCCCCC/C=C(\CP(=O)(O)CC(C)C)C(=O)O [compound 7]
OUT: 7.57

IN: Indicate its recorded pIC50; the compound in question is CC1(C)CC1P(=O)(O)C/C(=C\C1CCCCC1)C(=O)O (stereo not shown) [Compound No. 5]
OUT: 8.09

IN: Indicate its recorded pIC50; the compound in question is O=C(O)/C(=C/C1CCCCC1)CP(=O)(O)CC1CCCC1 [Compound No. 17]
OUT: 7.74

IN: Indicate its recorded pIC50; the compound in question is CC1(C)CC1P(=O)(O)C/C(=C\C1CC1)C(=O)O (stereo not shown) [compound 15]
OUT: 8.20

IN: Indicate its recorded pIC50; the compound in question is O=C(O)/C(=C/C1CC1)CP(=O)(O)CC1CCCCC1 [compound 16]
OUT: 7.39

IN: Indicate its recorded pIC50; the compound in question is CC(C)CP(=O)(O)C/C(=C\CCCSc1c[nH]nn1)C(=O)O [compound 19]
OUT: 7.60
